# Tested on: 997726-040-R-J2-PDC tumor spheroids, viability
# PROCEDURE_DETAILS: Anticancer human tumor 997726-040-R-J2-PDC patient-derived squamous cell lung carcinoma cell line growth inhibition [PI3K]
# REPORTED_CONDITIONS: curve of first compound; second compound 0.0316 µM; spheroids with HUVEC and MSC
pIC50: −log10 of the molar value.
OBSERVATION_TYPE: pIC50

- COMPOUND: "CC(C)NCC(C(=O)N1CCN(c2ncnc3c2C(C)CC3O)CC1)c1ccc(Cl)cc1 (stereo unspecified) + CC(Nc1ncnc2nc[nH]c12)c1cc2cccc(Cl)c2c(=O)n1-c1ccccc1"
  SYSTEM_TESTED: "997726-040-R-J2-PDC tumor spheroids, viability"
  OBSERVATION_TYPE: "pIC50"
  ASSAY_RESULT: 6.41

1: CC(C)n1nc(-c2ccc3oc(N)nc3c2)c2c(N)ncnc21 + CC(Nc1ccc2c(c1)OCCn1cc(N3C(=O)OCC3C(F)F)nc1-2)C(N)=O
2: Cn1cnc2c(F)c(Nc3ccc(Br)cc3Cl)c(C(=O)NOCCO)cc21 + CC(Nc1ncnc2nc[nH]c12)c1cc2cccc(Cl)c2c(=O)n1-c1ccccc1
3: Cn1ncc(Cl)c1-c1cc(C(=O)NC(CN)Cc2cccc(F)c2)sc1Cl (stereo unspecified) + CC(Nc1ccc2c(c1)OCCn1cc(N3C(=O)OCC3C(F)F)nc1-2)C(N)=O
Q: Put the items in sequence by pIC50, from largest down. When ranking, write the labels in the order the request describes.
A: 1, 3, 2

----------
# Test system: 997726-040-R-J2-PDC tumor spheroids, viability
# PROCEDURE_DETAILS: Anticancer human tumor 997726-040-R-J2-PDC cell line growth inhibition [PI3K];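 further: spheroids exposed to compounds for seven days before readout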
# REPORTED_CONDITIONS: second compound 10 µM; first compound 3.16 µM; stronger effect = lower value; spheroids with HUVEC and MSC
# Source text: Combinatorial screen of targeted agents with the PI3K inhibitors inavolisib, alpelisib, duvelisib, and copanlisib in multi-cell type tumor spheroids A high-throughput screen of multi-cell type tumor spheroids was designed to identify active combinations of targeted small molecules and PI3K pathway inhibitors. […] Compounds. […] If the clinical Cmax for an agent had not been determined, the highest concentration tested was 10 microM. […]
OBSERVATION_TYPE: viability, T/C (%)
Use % as the unit, but write only the number.

Q: Quote viability, T/C reported for Cn1nccc1Nc1nccc(-c2ccn(C(CO)c3ccc(Cl)c(F)c3)c(=O)c2)n1 (stereo not given) + Cc1nc(NC(=O)N2CCCC2C(N)=O)sc1-c1ccnc(C(C)(C)C(F)(F)F)c1 please.
A: 17.2

----------
viability, T/C listing for selected compounds.
# Test system: 997726-040-R-J2-PDC tumor spheroids, viability
# PROCEDURE_DETAILS: Anticancer human tumor 997726-040-R-J2-PDC cell line growth inhibition [PI3K];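 further: spheroids exposed to compounds for seven days before readout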
# REPORTED_CONDITIONS: second compound 0.1 µM; first compound 10 µM; stronger effect = lower value; spheroids with HUVEC and MSC
Give the value in % but do not write % after it.

- COMPOUND: "CCCS(=O)(=O)Nc1ccc(F)c(C(=O)c2c[nH]c3ncc(-c4ccc(Cl)cc4)cc23)c1F + CC(Nc1ncnc2nc[nH]c12)c1cc2cccc(Cl)c2c(=O)n1-c1ccccc1"
  ASSAY_RESULT: 23.1
- COMPOUND: "Cn1nccc1Nc1nccc(-c2ccn(C(CO)c3ccc(Cl)c(F)c3)c(=O)c2)n1 (stereo unspecified) + CC(Nc1ccc2c(c1)OCCn1cc(N3C(=O)OCC3C(F)F)nc1-2)C(N)=O"
  ASSAY_RESULT: 23.6
- COMPOUND: "CC1(C)CCC(Nc2ncc(C(F)(F)F)c(-c3c[nH]c4c(P(C)(C)=O)c(C#N)ccc34)n2)CN1 (stereo unspecified) + CC(Nc1ncnc2nc[nH]c12)c1cc2cccc(Cl)c2c(=O)n1-c1ccccc1"
  ASSAY_RESULT: 33
- COMPOUND: "Cn1nccc1Nc1nccc(-c2ccn(C(CO)c3ccc(Cl)c(F)c3)c(=O)c2)n1 (stereo unspecified) + CC(Nc1ncnc2nc[nH]c12)c1cc2cccc(Cl)c2c(=O)n1-c1ccccc1"
  ASSAY_RESULT: 61.8
- COMPOUND: "C#Cc1c(F)ccc2cc(O)cc(-c3ncc4c(N5CC6CCC(C5)N6)nc(OCC56CCCN5CC(F)C6)nc4c3F)c12 (stereo unspecified) + Cc1nc(NC(=O)N2CCCC2C(N)=O)sc1-c1ccnc(C(C)(C)C(F)(F)F)c1"
  ASSAY_RESULT: 55

Q: Using known records, supply viability, T/C for C[C@@H](NC(=O)c1ncnc(N)c1Cl)c1ncc(C(=O)Nc2cc(C(F)(F)F)c(Cl)cn2)s1 + COc1c(OCCCN2CCOCC2)ccc2c3n(c(=NC(=O)c4cnc(N)nc4)nc12)CCN3
A: 19.2

Q: Retrieve viability, T/C measured for Cn1ncc(Cl)c1-c1cc(C(=O)NC(CN)Cc2cccc(F)c2)sc1Cl (stereo unspecified) + CC(Nc1ncnc2nc[nH]c12)c1cc2cccc(Cl)c2c(=O)n1-c1ccccc1 and print it.
A: 12.4

Q: Please give the documented viability, T/C of CC(Cn1ccc(-c2ccc(C#N)c(Cl)c2)n1)NC(=O)c1cc(C(C)O)[nH]n1 (stereo unspecified) + CC(Nc1ncnc2nc[nH]c12)c1cc2cccc(Cl)c2c(=O)n1-c1ccccc1
A: 108

Q: Please look at this compound and report its viability, T/C: C=CC(=O)N1CCN(c2nc(=O)n(-c3c(C)ccnc3C(C)C)c3nc(-c4c(O)cccc4F)c(F)cc23)C(C)C1 (stereo unspecified) + CC(Nc1ccc2c(c1)OCCn1cc(N3C(=O)OCC3C(F)F)nc1-2)C(N)=O
A: 48.4

Q: Read off the recorded viability, T/C for CNC(=O)c1ccc(N2C(=S)N(c3ccc(C#N)c(C(F)(F)F)c3)C(=O)C2(C)C)cc1F + Cc1nc(NC(=O)N2CCCC2C(N)=O)sc1-c1ccnc(C(C)(C)C(F)(F)F)c1
A: 71.1

Q: Look up viability, T/C of CC1(C)CCC(Nc2ncc(C(F)(F)F)c(-c3c[nH]c4c(P(C)(C)=O)c(C#N)ccc34)n2)CN1 (stereo unspecified) + CC(Nc1ccc2c(c1)OCCn1cc(N3C(=O)OCC3C(F)F)nc1-2)C(N)=O and report it.
A: 3.37

----------
# System: 997726-040-R-J2-PDC tumor spheroids, viability
# PROCEDURE_DETAILS: Anticancer human tumor 997726-040-R-J2-PDC cell line growth inhibition [PI3K];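 further: spheroids exposed to compounds for seven days before readout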
# REPORTED_CONDITIONS: second compound 10 µM; first compound 0.0316 µM; stronger effect = lower value; spheroids with HUVEC and MSC
Each record here notes measured viability, T/C.
Unit % implied. Number only.

These recorded examples may help you get a feel for the data.
- COMPOUND: "CCN1CCN(Cc2ccc(Nc3ncc(F)c(-c4cc(F)c5nc(C)n(C(C)C)c5c4)n3)nc2)CC1 + Cc1nc(NC(=O)N2CCCC2C(N)=O)sc1-c1ccnc(C(C)(C)C(F)(F)F)c1"
  ASSAY_RESULT: 10.3
- COMPOUND: "CC(Cn1ccc(-c2ccc(C#N)c(Cl)c2)n1)NC(=O)c1cc(C(C)O)[nH]n1 (stereo not given) + Cc1nc(NC(=O)N2CCCC2C(N)=O)sc1-c1ccnc(C(C)(C)C(F)(F)F)c1"
  ASSAY_RESULT: 15.4

Q: # lookup: 997726-040-R-J2-PDC tumor spheroids, viability viability, T/C, key = CCCS(=O)(=O)Nc1ccc(F)c(C(=O)c2c[nH]c3ncc(-c4ccc(Cl)cc4)cc23)c1F + CC(Nc1ncnc2nc[nH]c12)c1cc2cccc(Cl)c2c(=O)n1-c1ccccc1
A: 53.7

Q: Under 997726-040-R-J2-PDC tumor spheroids, viability, report viability, T/C for Cn1ncnc1[C@H]1c2n[nH]c(=O)c3cc(F)cc(c23)N[C@@H]1c1ccc(F)cc1 + Cc1nc(NC(=O)N2CCCC2C(N)=O)sc1-c1ccnc(C(C)(C)C(F)(F)F)c1
A: 18.8

Q: Jot down viability, T/C (997726-040-R-J2-PDC tumor spheroids, viability) of CC(=O)c1c(C)c2cnc(Nc3ccc(N4CCNCC4)cn3)nc2n(C2CCCC2)c1=O + Cc1nc(NC(=O)N2CCCC2C(N)=O)sc1-c1ccnc(C(C)(C)C(F)(F)F)c1 .
A: 11.8

----------
# Tested on: 997726-040-R-J2-PDC tumor spheroids, viability
# PROCEDURE_DETAILS: Anticancer human tumor 997726-040-R-J2-PDC cell line growth inhibition [PI3K];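 further: spheroids exposed to compounds for seven days before readout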
# REPORTED_CONDITIONS: second compound 0.316 µM; first compound 0.000316 µM; stronger effect = lower value; spheroids with HUVEC and MSC
OBSERVATION_TYPE: viability, T/C (%)
Give the number; % is assumed, so skip it.

- MOLECULE: "CC(C)n1nc(-c2ccc3oc(N)nc3c2)c2c(N)ncnc21 + CC(Nc1ccc2c(c1)OCCn1cc(N3C(=O)OCC3C(F)F)nc1-2)C(N)=O"
  UNITS: "%"
  ASSAY_RESULT: 32.5
- MOLECULE: "CC(=O)c1c(C)c2cnc(Nc3ccc(N4CCNCC4)cn3)nc2n(C2CCCC2)c1=O + Cc1nc(NC(=O)N2CCCC2C(N)=O)sc1-c1ccnc(C(C)(C)C(F)(F)F)c1"
  UNITS: "%"
  ASSAY_RESULT: 53.4
- MOLECULE: "Cn1ncnc1[C@H]1c2n[nH]c(=O)c3cc(F)cc(c23)N[C@@H]1c1ccc(F)cc1 + CC(Nc1ncnc2nc[nH]c12)c1cc2cccc(Cl)c2c(=O)n1-c1ccccc1"
  UNITS: "%"
  ASSAY_RESULT: 93.5
- MOLECULE: "CC(C)n1nc(-c2ccc3oc(N)nc3c2)c2c(N)ncnc21 + CC(Nc1ncnc2nc[nH]c12)c1cc2cccc(Cl)c2c(=O)n1-c1ccccc1"
  UNITS: "%"
  ASSAY_RESULT: 93.2
- MOLECULE: "CC(C)n1nc(-c2ccc3oc(N)nc3c2)c2c(N)ncnc21 + Cc1nc(NC(=O)N2CCCC2C(N)=O)sc1-c1ccnc(C(C)(C)C(F)(F)F)c1"
  UNITS: "%"
  ASSAY_RESULT: 62

Continue with the molecule presented below.
Q: For the molecule Cn1ncnc1[C@H]1c2n[nH]c(=O)c3cc(F)cc(c23)N[C@@H]1c1ccc(F)cc1 + CC(Nc1ccc2c(c1)OCCn1cc(N3C(=O)OCC3C(F)F)nc1-2)C(N)=O , give its reported viability, T/C.
A: 31.2
